# system: PI3Kδ (Homo sapiens)
# Construct: made in house
# Sequence (O00329 whole entry): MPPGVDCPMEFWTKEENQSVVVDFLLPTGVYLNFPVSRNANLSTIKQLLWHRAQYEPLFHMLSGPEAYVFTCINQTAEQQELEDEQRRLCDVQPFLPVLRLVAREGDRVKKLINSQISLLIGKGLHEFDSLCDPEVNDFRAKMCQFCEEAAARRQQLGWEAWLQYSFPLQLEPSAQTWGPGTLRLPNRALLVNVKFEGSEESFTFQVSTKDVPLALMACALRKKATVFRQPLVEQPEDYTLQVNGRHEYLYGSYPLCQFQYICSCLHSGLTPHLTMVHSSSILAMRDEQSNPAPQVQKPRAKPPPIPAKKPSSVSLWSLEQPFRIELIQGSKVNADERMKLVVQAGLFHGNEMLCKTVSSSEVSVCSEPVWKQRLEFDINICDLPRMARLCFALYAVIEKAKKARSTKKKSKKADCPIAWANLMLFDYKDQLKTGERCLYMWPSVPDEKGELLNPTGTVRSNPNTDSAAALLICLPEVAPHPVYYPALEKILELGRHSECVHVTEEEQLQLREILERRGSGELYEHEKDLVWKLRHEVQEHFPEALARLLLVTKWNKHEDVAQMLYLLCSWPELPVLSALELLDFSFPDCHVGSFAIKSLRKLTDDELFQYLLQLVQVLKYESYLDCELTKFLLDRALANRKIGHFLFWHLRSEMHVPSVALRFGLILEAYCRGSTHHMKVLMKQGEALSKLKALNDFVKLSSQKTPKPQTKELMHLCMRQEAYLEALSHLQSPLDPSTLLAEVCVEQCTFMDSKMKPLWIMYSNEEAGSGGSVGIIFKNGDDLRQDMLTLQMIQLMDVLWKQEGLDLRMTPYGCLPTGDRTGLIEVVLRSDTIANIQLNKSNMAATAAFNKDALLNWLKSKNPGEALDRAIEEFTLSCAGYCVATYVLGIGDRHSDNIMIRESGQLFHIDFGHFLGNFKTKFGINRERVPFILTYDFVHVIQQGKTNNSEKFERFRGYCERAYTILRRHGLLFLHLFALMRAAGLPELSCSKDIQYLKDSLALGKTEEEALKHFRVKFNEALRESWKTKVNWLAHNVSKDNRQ
# Sequence (P27986 2-724 partner limits assumed): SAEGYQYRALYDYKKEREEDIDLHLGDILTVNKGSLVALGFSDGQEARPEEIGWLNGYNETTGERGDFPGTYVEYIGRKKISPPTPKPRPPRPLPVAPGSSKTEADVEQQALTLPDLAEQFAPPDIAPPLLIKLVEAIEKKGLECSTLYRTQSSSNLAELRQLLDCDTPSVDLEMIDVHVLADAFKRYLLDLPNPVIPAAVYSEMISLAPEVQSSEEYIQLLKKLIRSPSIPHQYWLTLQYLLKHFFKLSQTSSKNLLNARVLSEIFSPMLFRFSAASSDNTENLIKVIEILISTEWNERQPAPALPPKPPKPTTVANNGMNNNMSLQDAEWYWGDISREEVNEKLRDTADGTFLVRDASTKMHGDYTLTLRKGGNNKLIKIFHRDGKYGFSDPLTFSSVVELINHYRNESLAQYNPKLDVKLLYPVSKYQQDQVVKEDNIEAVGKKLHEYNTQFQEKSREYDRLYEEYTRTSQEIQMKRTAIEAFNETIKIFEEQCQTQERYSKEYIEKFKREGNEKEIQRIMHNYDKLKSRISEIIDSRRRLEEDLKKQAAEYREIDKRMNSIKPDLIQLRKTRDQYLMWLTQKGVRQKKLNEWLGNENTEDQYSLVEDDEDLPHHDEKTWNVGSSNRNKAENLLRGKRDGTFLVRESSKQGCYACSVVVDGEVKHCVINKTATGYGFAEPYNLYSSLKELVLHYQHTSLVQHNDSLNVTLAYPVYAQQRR
# assay method text: HTRF in vitro profiling assay for PI3K inhibition, delta isoform
# Format: biochemical
# measurement context: in at least one experimental run; read-out: IC50 against PI3Kδ
measured endpoint: IC50 (nM)
Answers are plain numbers, in nM.

Problem: Could you share which IC50 value was measured for N#Cc1cccc(Cn2cnc(=O)c3sc(N4CCOCC4)nc32)c1 ?
Solution: 8
